# Method Summary: gradient 5% acetonitrile 3 min, to 50% in 2 min, to 85% in 15 min, held 3 min, 100 µL/min
# Test Parameters: column: Zorbax Extend-C18 2.1 x 50 mm; eluents: water / acetonitrile, 0.1% formic acid
Please respond with satisfied when measured RP-LC retention time is strictly beneath 800 s, and with not satisfied in all other cases.

>>> df
                                   compound          class
0  Cc1ccc(N2C=C(C(=O)N3CCOCC3)S(=O)(=O)c3ccc(Cl)cc32)cc1Cl  not satisfied
1  CCc1cc(=O)n(CC(=O)NCc2ccc3c(c2)OCO3)c(N2CCOCC2)n1      satisfied
2  O=C(c1cccs1)N1CCC2(CC1)NC(=O)N(Cc1ccc(F)cc1)C2=O      satisfied
3  Cc1[nH]c2ccccc2c1CC(=O)NCCc1c[nH]c2ccccc12  not satisfied
4  CCc1nnc2c(=O)n(CC(=O)NCc3ccccc3)c3cccnc3n12      satisfied
5  O=C(Nc1ccccc1)N1CCC(Oc2ccccc2)C1 (centres undefined)  not satisfied
6  O=C(CCC1CCN(S(=O)(=O)c2ccccc2F)CC1)NC1CCS(=O)(=O)C1 (centres undefined)      satisfied
7  Cc1[nH]c(C)c(S(=O)(=O)N2CCC(C(=O)Nc3ccc(F)cc3)CC2)c1C(=O)N1CCCC1      satisfied

###

# Method Summary: gradient 5% acetonitrile 3 min, to 50% in 2 min, to 85% in 15 min, held 3 min, 100 µL/min
# Test Parameters: column: Zorbax Extend-C18 2.1 x 50 mm; eluents: water / acetonitrile, 0.1% formic acid
Parameter Measured: RP-LC retention time (s)

>>> df
                                   compound    parameter_measured  unit_label  result_value
0  Cc1ccc(CNC(=O)c2cccc(-c3nc4cccnc4n3C)c2)o1  RP-LC retention time           s           722
1  O=C(Cn1ccn2nc(-c3ccc(Cl)cc3)cc2c1=O)N1CCCc2ccccc21  RP-LC retention time           s          1080
2  CCOc1ccc(NC(=O)N2CCN(CCn3c(C(F)(F)F)nc4cccnc43)CC2)cc1  RP-LC retention time           s           649
3  Cc1cc(NC(=O)c2c(F)cccc2Cl)n(-c2nc(-c3ccccc3)cs2)n1  RP-LC retention time           s          1330
4  CCCN1C(=O)COc2ccc(-c3noc(C4CC(=O)N(c5ccccc5)C4)n3)cc21 (stereo not given)  RP-LC retention time           s           948

###

# Method Summary: gradient 5% acetonitrile 3 min, to 50% in 2 min, to 85% in 15 min, held 3 min, 100 µL/min
# Test Parameters: column: Zorbax Extend-C18 2.1 x 50 mm; eluents: water / acetonitrile, 0.1% formic acid
Reported RP-LC retention time is given for each of the following molecules.
Parameter Measured: RP-LC retention time (s)

In [3]: df
Out[3]:
                                    molecule  unit_label  result_value
 0  CC1CC(=O)c2cnc(N3CCN(C)CC3)nc2C1 (stereo unspecified)           s           564
 1           CC1(CNC(=O)NCc2cccc(F)c2)CCOCC1           s           684
 2             Cc1noc(-c2nc(-c3cccnc3)no2)n1           s           736
 3  Cc1cccc(NC(=O)Nc2cnn(-c3ncncc3N3CCOCC3)c2)c1C           s           612
 4  O=C(Nc1ccc(F)c(F)c1)C1CCCN(C(=O)Cc2cccc3ccccc23)C1 (stereo unspecified)           s          1020
 5  O=C(c1ccc(F)cc1)N1CCCC(c2nnc(-c3ccccc3)o2)C1 (stereo unspecified)           s           819
 6  O=C(Nc1ccccc1F)C1CCc2nc(N3CCOCC3)ncc2C1 (stereo unspecified)           s           778
 7  CCCCn1c(=O)c2ccccc2n(Cc2nc(-c3ccc(C)c(C)c3)no2)c1=O           s          1290
 8  COc1ccc(-c2cn3c(CC(=O)NCc4cc(OC)c(OC)c(OC)c4)csc3n2)cc1OC           s           652
 9  COc1ccc(NS(=O)(=O)c2cc(-c3c(C)noc3NC(C)=O)ccc2OC)c(OC)c1           s           724
10    O=c1c2scc(-c3cccc(F)c3)c2ncn1Cc1cccnc1           s           699
11  COCCNS(=O)(=O)c1cc(-c2nc(C)cs2)n(CC(=O)N2CCCCC2)c1           s           755
12  CCCn1ncc(N2CCC(C(=O)N3CCN(C(C)=O)CC3)CC2)cc1=O           s           591
13  CCC1CN1P(=O)(Oc1ccc(Cl)cc1)N1CC1CC (stereo unspecified)           s           980
14  Cc1ccc(NC(=O)C2CCN(S(=O)(=O)c3cn(C(C)C)cn3)CC2)cc1F           s           823
15                Clc1ccc2nnc(Cc3ccccc3)n2n1           s           739
16  Cc1ccc(OCCOCC(O)CN(CCO)CCO)cc1C (stereo unspecified)           s           569
17  O=C(CC1CCN(C(=O)c2ccc3nc(-c4ccccc4)oc3c2)CC1)NCC1CCCO1 (stereo unspecified)           s           722
18  Cc1cc(NC(=O)COc2coc(CN3CCN(C(=O)c4ccco4)CC3)cc2=O)no1           s           549
19  CC(=O)Nc1nc(-c2ccc(S(=O)(=O)N3CCOCC3)cc2)cs1           s           735
20  COc1ccc(C2c3c(n(C)c4ccccc34)C(=O)N2CC(=O)NCc2ccco2)cc1 (stereo unspecified)           s           924
